system: A. non-baumannii isolates (n = 87); experiment: MIC, broth microdilution (EUCAST), A. non-baumannii isolates; type: cell-based, Acinetobacter spp. (non-baumannii); conditions: Acinetobacter bereziniae, isolate NO-Ab129, Acinetobacter bereziniae; in combinations ETZ fixed at 8 mg/L; read-out: MIC
Each item that follows carries a reported MIC.
Field format: number, assumed µg/mL, no unit text.

INSERT INTO results (compound, property, measured_value) VALUES
  ('CC1(C)[C@H](C(=O)O)N2C(=O)C[C@H]2S1(=O)=O', 'MIC', 1),
  ('C[C@@H](O)[C@H]1C(=O)N2C(C(=O)O)=C(SCCN=CN)C[C@H]12', 'MIC', 0.25);

The reported MIC of the compound `C[n+]1ccn(C[C@@]2(C)[C@H](C(=O)[O-])N3C(=O)C[C@H]3S2(=O)=O)n1` was 1

Data point: CO/N=C(\C(=O)N[C@@H]1C(=O)N2C(C(=O)[O-])=C(C[N+]3(C)CCCC3)CS[C@H]12)c1csc(N)n1 [cefepime] ; MIC = 1
